# assay_details: Cytotoxicity against African green monkey Vero cells measured after 48 hrs by crystal violet staining based colorimetric method
# Format: cell-based
# recorded_conditions: chlorocebus sabaeus, read-out: MNCC
Measured MNTC at 48 h accompanies every entry in the list below.

# cpd_smiles, MNTC at 48 h, µg/mL
rows = [
    ("COc1cccc(CSc2nc3cc4ccccc4cc3c(=O)n2Cc2ccccc2)c1", 7.8),
    ("N#Cc1ccc(CSc2nc3cc4ccccc4cc3c(=O)n2CCc2ccccc2)cc1", 15.6),
    ("O=c1c2cc3ccccc3cc2[nH]c(=S)n1CCc1ccccc1", 31.2),
    ("O=c1c2cc3ccccc3cc2nc(SCc2ccc([N+](=O)[O-])cc2)n1Cc1ccccc1", 31.2),
    ("NNc1nc2cc3ccccc3cc2c(=O)n1Cc1ccccc1", 15.6),
    ("O=c1c2cc3ccccc3cc2nc(SCc2ccc(Cl)cc2)n1CCc1ccccc1", 15.6),
    ("C=CCSc1nc2cc3ccccc3cc2c(=O)n1CCc1ccccc1", 62.5),
    ("O=c1c2cc3ccccc3cc2nc(SCc2ccccc2)n1Cc1ccccc1", 62.5),
    ("COc1cccc(CSc2nc3cc4ccccc4cc3c(=O)n2CCc2ccccc2)c1", 31.2),
    ("N#Cc1cccc(CSc2nc3cc4ccccc4cc3c(=O)n2Cc2ccccc2)c1", 62.5),
    ("N#Cc1ccc(CSc2nc3cc4ccccc4cc3c(=O)n2Cc2ccccc2)cc1", 31.2),
    ("N#Cc1cccc(CSc2nc3cc4ccccc4cc3c(=O)n2CCc2ccccc2)c1", 31.2),
    ("N#Cc1ccccc1CSc1nc2cc3ccccc3cc2c(=O)n1Cc1ccccc1", 7.8),
    ("O=c1c2cc3ccccc3cc2[nH]c(=S)n1Cc1ccccc1", 15.6),
    ("Cc1cccc(CSc2nc3cc4ccccc4cc3c(=O)n2Cc2ccccc2)c1", 62.5),
    ("NNc1nc2cc3ccccc3cc2c(=O)n1CCc1ccccc1", 31.2),
    ("Cc1ccccc1CSc1nc2cc3ccccc3cc2c(=O)n1CCc1ccccc1", 15.6),
]

====

# assay_details: Selectivity index, ratio of CC50 for African green monkey Vero cells to EC50 for HAV HM175 infected in African green monkey Vero cells
# Type: toxicity
# recorded_conditions: Vero cells, read-out: Ratio CC50/EC50
test_readout: selectivity ratio

# cpd_smiles, test_readout, obs_value
data = [
    ("N#Cc1cccc(CSc2nc3cc4ccccc4cc3c(=O)n2Cc2ccccc2)c1", "selectivity ratio", 2.32),
    ("Cc1cccc(CSc2nc3cc4ccccc4cc3c(=O)n2Cc2ccccc2)c1", "selectivity ratio", 5.61),
    ("N#Cc1ccccc1CSc1nc2cc3ccccc3cc2c(=O)n1Cc1ccccc1", "selectivity ratio", 1.23),
    ("NNc1nc2cc3ccccc3cc2c(=O)n1CCc1ccccc1", "selectivity ratio", 31.6),
    ("O=c1c2cc3ccccc3cc2nc(SCc2ccccc2)n1Cc1ccccc1", "selectivity ratio", 2.14),
    ("N#Cc1ccc(CSc2nc3cc4ccccc4cc3c(=O)n2Cc2ccccc2)cc1", "selectivity ratio", 1.35),
    ("O=c1c2cc3ccccc3cc2nc(SCc2ccc(Cl)cc2)n1CCc1ccccc1", "selectivity ratio", 1.75),
    ("O=c1c2cc3ccccc3cc2[nH]c(=S)n1Cc1ccccc1", "selectivity ratio", 4.91),
    ("N#Cc1cccc(CSc2nc3cc4ccccc4cc3c(=O)n2CCc2ccccc2)c1", "selectivity ratio", 1.25),
    ("COc1cccc(CSc2nc3cc4ccccc4cc3c(=O)n2CCc2ccccc2)c1", "selectivity ratio", 2.36),
    ("NC12CC3CC(CC(C3)C1)C2", "selectivity ratio", 54.1),
]
